Assay: Metabolic stability in human liver microsomes assessed as half-life incubated for 120 mins in presence of NADPH by LC-MS/MS analysis
Type: ADME, Microsome
REPORTED PROPERTY: half-life (h)
Respond numerically; units are h and should not be typed.

Challenge: Looking for the measured half-life of "COc1cc(C(=O)NC2CCNCC2)ccc1Nc1nc(Oc2cccc3c2C(=O)CC3)c2cc[nH]c2n1" , can you help?
Response given: 1.88

Challenge: Looking for the measured half-life of "CN1CCN(c2ccc(Nc3nc(Oc4cccc5c4C(=O)CC5)c4cc[nH]c4n3)cc2Cl)CC1" , can you help?
Response given: 0.775

Challenge: Looking for the measured half-life of "COc1cc(N2CCN(C)CC2)ccc1Nc1nc(Oc2ccc(C)c3c2C(=O)CC3)c2cc[nH]c2n1" , can you help?
Response given: 1.65

Challenge: Looking for the measured half-life of "CN1CCN(C2CCN(c3ccc(Nc4nc(Oc5cccc6c5C(=O)CC6)c5cc[nH]c5n4)cc3)CC2)CC1" , can you help?
Response given: 1.55

Challenge: Looking for the measured half-life of "Cc1cc(Nc2nc(Oc3cccc4c3C(=O)CC4)c3cc[nH]c3n2)ccc1OCCN(C)C" , can you help?
Response given: 0.867

Challenge: Looking for the measured half-life of "Cc1ccc(Oc2nc(Nc3ccc(N4CCC(N5CCN(C)CC5)CC4)cc3)nc3[nH]ccc23)c2c1CCC2=O" , can you help?
Response given: 1.57

* * *

Assay: Tmax in Sprague-Dawley rat at 20 mg/kg, po
Type: ADME, organism-based
Conditions: in vivo
REPORTED PROPERTY: Tmax (min)
Respond numerically; units are min and should not be typed.

Challenge: Looking for the measured Tmax of "COc1cc(C(=O)NC2CCNCC2)ccc1Nc1nc(Oc2cccc3c2C(=O)CC3)c2cc[nH]c2n1" , can you help?
Response given: 16.8

* * *

Provide the reported remaining at 2 h of each item.
Test: Metabolic stability in human liver microsomes assessed as parent compound remaining incubated for 120 mins in presence of NADPH by LC-MS/MS analysis
Assay type: ADME, Microsome
Conditions: read-out: Stability
Respond numerically; units are % and should not be typed.

Challenge: Looking for the measured remaining at 2 h of "Cc1cc(Nc2nc(Oc3cccc4c3C(=O)CC4)c3cc[nH]c3n2)ccc1OCCN(C)C" , can you help?
Response given: 19.8

Challenge: Looking for the measured remaining at 2 h of "COc1cc(N2CCN(C)CC2)ccc1Nc1nc(Oc2ccc(C)c3c2C(=O)CC3)c2cc[nH]c2n1" , can you help?
Response given: 42.2

Challenge: Looking for the measured remaining at 2 h of "CN1CCN(C2CCN(c3ccc(Nc4nc(Oc5cccc6c5C(=O)CC6)c5cc[nH]c5n4)cc3)CC2)CC1" , can you help?
Response given: 42.2

Challenge: Looking for the measured remaining at 2 h of "Cc1ccc(Oc2nc(Nc3ccc(N4CCC(N5CCN(C)CC5)CC4)cc3)nc3[nH]ccc23)c2c1CCC2=O" , can you help?
Response given: 41.5

Challenge: Looking for the measured remaining at 2 h of "Cc1cc(Nc2nc(Oc3cccc4c3C(=O)CC4)c3cc[nH]c3n2)ccc1N1CCN(CC2CC2)CC1" , can you help?
Response given: 15.3

Challenge: Looking for the measured remaining at 2 h of "CN1CCN(c2ccc(Nc3nc(Oc4cccc5c4C(=O)CC5)c4cc[nH]c4n3)cc2Cl)CC1" , can you help?
Response given: 15.7

Challenge: Looking for the measured remaining at 2 h of "COc1cc(N2CCN(C)CC2)ccc1Nc1nc(Oc2cccc3c2C(=O)CC3)c2cc[nH]c2n1" , can you help?
Response given: 62.7

Challenge: Looking for the measured remaining at 2 h of "COc1cc(C(=O)NC2CCNCC2)ccc1Nc1nc(Oc2cccc3c2C(=O)CC3)c2cc[nH]c2n1" , can you help?
Response given: 48.6
